Data credit: patent US9365571B2

Assign minimal effective concentration to each entry below.
- Tested on: PBMC-IFNa
- method_notes: PBMC-IFNa
- Assay type: cell-based
- applied_conditions: Table IIC; lowest effective concentration; read-out: PBMC-IFNa (LEC)
Answer as a quantity: numeral, then unit.

Looking up CCCCNc1nc(N)nc2c1CN(C(=O)c1cocn1)CC2 , I found its minimal effective concentration recorded as 0.2 µM

// sample CCC[C@@H](CCO)Nc1nc(N)nc2c1CN(C(=O)c1cscn1)CC2 , its minimal effective concentration was 0.2 µM

// recorded minimal effective concentration for CCCC[C@@H](CCO)Nc1nc(N)nc2c1CN(C(=O)c1cccs1)CC2 : 0.2 µM

Entry CCCCNc1nc(N)nc2c1CCN(C(=O)c1cocn1)C2 , minimal effective concentration reported as 0.6 µM

Looking up CCC[C@@H](CCO)Nc1nc(N)nc2c1CN(C(=O)c1ccco1)CC2 , I found its minimal effective concentration recorded as 0.1 µM

----------
Would you mind telling me the reported Human TLR8 (LEC, μM) of each entry?
- Tested on: human TLR8
- method_notes: TLR8 cellular NFκB-luc reporter assay in transiently transfected HEK293 cells
- Format: cell-based
- applied_conditions: Table II B, lowest effective concentration, 6 hours incubation
# answer = value followed by unit

Per the records, this compound ( CCCCNc1nc(N)nc2c1CN(C(=O)Cc1cccs1)CC2 ) has Human TLR8 (LEC, μM) equal to 0.88 µM

Looking up CCCCNc1nc(N)nc2c1CN(C(=O)CC)CC2 , I see its Human TLR8 (LEC, μM) listed as 0.40 µM

Quick note, Human TLR8 (LEC, μM) for CCCCNc1nc(N)nc2c1CN(C(=O)C(C)C)CC2 landed at 1.62 µM

So, CCCCNc1nc(N)nc2c1CN(C(C)=O)CC2 ? Its Human TLR8 (LEC, μM) was 0.50 µM

Human TLR8 (LEC, μM) reported for this compound CCCCNc1nc(N)nc2c1CN(C(=O)C1CCC1)CC2 : 0.32 µM

----------
- Tested on: PBMC-IFNa
- method_notes: PBMC-IFNa
- Type: cell-based
- applied_conditions: Table IIC; lowest effective concentration; read-out: PBMC-IFNa (LEC)
Would you mind telling me the reported log10 of minimal effective concentration of each entry?
# values: log10(minimal effective concentration), units µM

Recorded result, CCCCNc1nc(N)nc2c1CCN(C(=O)[C@@H](N)C(C)C)C2 , log10 of minimal effective concentration: 0.04

Summary for this compound, CCCCNc1nc(N)nc2c1CCN(C(=O)CC)C2 : log10 of minimal effective concentration is -0.30

// log10 of minimal effective concentration lookup, compound = CCCCNc1nc(N)nc2c1CCN(C(=O)C1CCOCC1)C2 , result: 0.94

For record CCC[C@@H](CCO)Nc1nc(N)nc2c1CN(C(=O)c1cccs1)CC2 the listed log10 of minimal effective concentration is -0.70

Reported log10 of minimal effective concentration of CCCC[C@@H](CCO)Nc1nc(N)nc2c1CN(C(=O)c1cccn1C)CC2 : -1.00

----------
- System: PBMC-IFNa
- method_notes: PBMC-IFNa
- Type: cell-based
- applied_conditions: Table IIC; lowest effective concentration; read-out: PBMC-IFNa (LEC)
Sorting guide: entries reporting minimal effective concentration beneath 0.3 µM go in the MET pile, the rest go in the NOT MET pile.

Challenge: For CCCCNc1nc(N)nc2c1CCN(C(=O)c1cc(C)on1)C2 , is the recorded minimal effective concentration below the cut-off of 0.3 µM?
Response given: NOT MET

Challenge: Is minimal effective concentration strictly under 0.3 µM for the entry CCCC[C@@H](CCO)Nc1nc(N)nc2c1CN(C(=O)c1csc(C)n1)CC2 ?
Response given: MET

Challenge: Decide: minimal effective concentration of CCC[C@@H](CCO)Nc1nc(N)nc2c1CN(C(=O)c1ccccc1)CC2 strictly below 0.3 µM?
Response given: NOT MET

Challenge: Regarding CCCCNc1nc(N)nc2c1CCN(C(=O)c1csnn1)C2 , kindly confirm whether its minimal effective concentration is beneath 0.3 µM.
Response given: NOT MET

Challenge: Here's an entry: CCC[C@@H](CCO)Nc1nc(N)nc2c1CN(C(=O)c1csc(C)n1)CC2 . Is its minimal effective concentration below 0.3 µM?
Response given: MET

Challenge: Hello, is minimal effective concentration of the following compound strictly smaller than 0.3 µM? CCCCNc1nc(N)nc2c1CN(C(=O)CC#N)CC2
Response given: NOT MET

Challenge: I'd appreciate it if you could check whether CCCC[C@@H](CCO)Nc1nc(N)nc2c1CN(C(=O)c1ccco1)CC2 has minimal effective concentration smaller than 0.3 µM.
Response given: MET

Challenge: Find out if reported minimal effective concentration for CCCCNc1nc(N)nc2c1CCN(C(=O)c1nccc3ccccc13)C2 is less than 0.3 µM
Response given: NOT MET
